- ASSAY REMARKS: Effect of food study: plasma pharmacokinetics fasted vs high-fat breakfast
- Format: in vivo, humans
- TEST CONTEXT: male, human, plasma, oral, 100 mg, 100 mg eplerenone capsule; High Fat Breakfast; 0.5 hours after dosing
OBSERVATION TYPE: concentration at 0.5 h (ng/mL)

{"columns": ["COMPOUND", "OBSERVATION TYPE", "READOUT UNITS", "EXPERIMENTAL RESULT"],
 "data": [
  ["COC(=O)C1CC2=CC(=O)CCC2(C)C23OC2CC2(C)C(CC[C@@]24CCC(=O)O4)C13 (stereo partly shown) [eplerenone]", "concentration at 0.5 h", "ng/mL", 71.2]
]}
